system: NCI-H460; assay: relative viability (nuclei count vs DMSO), 5 days (fraction); higher = more cells survive; details: first compound 500 µM
measured_endpoint: relative viability

{"columns": ["compound", "target_desc", "result"],
 "data": [
  ["O=C(O)CCCCC(CCSCc1ccccc1)SCc1ccccc1 (stereo not given) [CPI-613] + CC1(C)CCC(c2ccc(Cl)cc2)=C(CN2CCN(c3ccc(C(=O)NS(=O)(=O)c4ccc(N[C@H](CCN5CCOCC5)CSc5ccccc5)c(S(=O)(=O)C(F)(F)F)c4)cc3)CC2)C1 [Navitoclax] (partner 0.5 µM)", "NCI-H460", 0.0105],
  ["O=C(O)CCCCC(CCSCc1ccccc1)SCc1ccccc1 (stereo not given) [CPI-613] + O=C(c1cc(Cc2n[nH]c(=O)c3ccccc23)ccc1F)N1CCN(C(=O)C2CC2)CC1 [Olaparib] (partner 8 µM)", "NCI-H460", 0.361],
  ["O=C(O)CCCCC(CCSCc1ccccc1)SCc1ccccc1 (stereo not given) [CPI-613] + C[C@@H](Oc1cc(-c2cnn(C3CCNCC3)c2)cnc1N)c1c(Cl)ccc(F)c1Cl [Crizotinib] (partner 1 µM)", "NCI-H460", 0.0085],
  ["O=C(O)CCCCC(CCSCc1ccccc1)SCc1ccccc1 (stereo not given) [CPI-613] + COc1cccc2cc(-c3nc([C@H]4CC[C@H](C(=O)O)CC4)n4ncnc(N)c34)[nH]c12 [OSI-027] (partner 0.5 µM)", "NCI-H460", 0.0125],
  ["O=C(O)CCCCC(CCSCc1ccccc1)SCc1ccccc1 (stereo not given) [CPI-613] + CC(=O)Nc1cccc(-n2c(=O)n(C3CC3)c(=O)c3c(Nc4ccc(I)cc4F)n(C)c(=O)c(C)c32)c1 [Trametinib] (partner 0.02 µM)", "NCI-H460", 0.0229]
]}

###

system: NCI-H661; experiment: relative viability (nuclei count vs DMSO), 5 days (fraction); higher = more cells survive; details: first compound 0.5 µM
Lab note - cut at 0.4 for relative viability: T if strictly below, F if not.

{"columns": ["compound", "qualitative_label"],
 "data": [
  ["COc1cc2nccc(Oc3ccc(NC(=O)Nc4cc(C)on4)c(Cl)c3)c2cc1OC [Tivozanib] + O=C(CCCCCCC(=O)Nc1ccccc1)NO [Vorinostat] (partner 1 µM)", "F"],
  ["Nc1ccn([C@@H]2O[C@H](CO)[C@@H](O)[C@@H]2O)c(=O)n1 [Cytarabine] + COc1cccc2cc(-c3nc([C@H]4CC[C@H](C(=O)O)CC4)n4ncnc(N)c34)[nH]c12 [OSI-027] (partner 0.5 µM)", "T"],
  ["COc1cc2nccc(Oc3ccc(NC(=O)Nc4cc(C)on4)c(Cl)c3)c2cc1OC [Tivozanib] + CCNC(=O)c1noc(-c2cc(C(C)C)c(O)cc2O)c1-c1ccc(CN2CCOCC2)cc1 [Luminespib] (partner 0.01 µM)", "F"],
  ["COc1cc2nccc(Oc3ccc(NC(=O)Nc4cc(C)on4)c(Cl)c3)c2cc1OC [Tivozanib] + C[C@@H](Oc1cc(-c2cnn(C3CCNCC3)c2)cnc1N)c1c(Cl)ccc(F)c1Cl [Crizotinib] (partner 1 µM)", "F"],
  ["Nc1ccn([C@@H]2O[C@H](CO)[C@@H](O)[C@@H]2O)c(=O)n1 [Cytarabine] + Nc1nc2[nH]cc(CCc3ccc(C(=O)N[C@@H](CCC(=O)O)C(=O)O)cc3)c2c(=O)[nH]1 [Pemetrexed] (partner 0.2 µM)", "T"]
]}

###

system: UMC-11; assay: relative viability (nuclei count vs DMSO), 5 days (fraction); higher = more cells survive; details: first compound 2.53 µM
Could you please mark 1.0 for values of relative viability below 0.7 and 0.0 for values at or above it?

{"columns": ["molecule", "qualitative_label"],
 "data": [
  ["Cc1cnc(-c2cnc(NCCNc3ccc(C#N)cn3)nc2-c2ccc(Cl)cc2Cl)[nH]1 + N=C(N)NC(=N)NCCc1ccccc1 [Phenformin] (partner 250 µM)", 1.0],
  ["Cc1cnc(-c2cnc(NCCNc3ccc(C#N)cn3)nc2-c2ccc(Cl)cc2Cl)[nH]1 + CS(=O)(=O)CCNCc1ccc(-c2ccc3ncnc(Nc4ccc(OCc5cccc(F)c5)c(Cl)c4)c3c2)o1 [Lapatinib] (partner 2 µM)", 0.0],
  ["Cc1cnc(-c2cnc(NCCNc3ccc(C#N)cn3)nc2-c2ccc(Cl)cc2Cl)[nH]1 + C[C@@H](Oc1cc(-c2cnn(C3CCNCC3)c2)cnc1N)c1c(Cl)ccc(F)c1Cl [Crizotinib] (partner 1 µM)", 1.0],
  ["Cc1cnc(-c2cnc(NCCNc3ccc(C#N)cn3)nc2-c2ccc(Cl)cc2Cl)[nH]1 + CC(=O)c1c(C)c2cnc(Nc3ccc(N4CCNCC4)cn3)nc2n(C2CCCC2)c1=O [Palbociclib] (partner 0.5 µM)", 1.0],
  ["Cc1cnc(-c2cnc(NCCNc3ccc(C#N)cn3)nc2-c2ccc(Cl)cc2Cl)[nH]1 + C[C@]1(O)C[C@@H](c2nc(-c3ccc4ccc(-c5ccccc5)nc4c3)c3c(N)nccn32)C1 [Linsitinib] (partner 1 µM)", 0.0],
  ["Cc1cnc(-c2cnc(NCCNc3ccc(C#N)cn3)nc2-c2ccc(Cl)cc2Cl)[nH]1 + Cc1nc(Nc2ncc(C(=O)Nc3c(C)cccc3Cl)s2)cc(N2CCN(CCO)CC2)n1 [Dasatinib] (partner 0.075 µM)", 1.0],
  ["O=c1[nH]c2ccccc2n1C1CCN(CCCC(c2ccc(F)cc2)c2ccc(F)cc2)CC1 [Pimozide] + N=C(N)NC(=N)NCCc1ccccc1 [Phenformin] (partner 250 µM)", 1.0],
  ["Cc1cnc(-c2cnc(NCCNc3ccc(C#N)cn3)nc2-c2ccc(Cl)cc2Cl)[nH]1 + CCNC(=O)c1noc(-c2cc(C(C)C)c(O)cc2O)c1-c1ccc(CN2CCOCC2)cc1 [Luminespib] (partner 0.01 µM)", 0.0],
  ["Cc1cnc(-c2cnc(NCCNc3ccc(C#N)cn3)nc2-c2ccc(Cl)cc2Cl)[nH]1 + Cc1nc(NC(=O)N2CCC[C@H]2C(N)=O)sc1-c1ccnc(C(C)(C)C(F)(F)F)c1 [Alpelisib] (partner 2 µM)", 0.0],
  ["O=c1[nH]c2ccccc2n1C1CCN(CCCC(c2ccc(F)cc2)c2ccc(F)cc2)CC1 [Pimozide] + COc1cccc2cc(-c3nc([C@H]4CC[C@H](C(=O)O)CC4)n4ncnc(N)c34)[nH]c12 [OSI-027] (partner 0.5 µM)", 1.0],
  ["O=c1[nH]c2ccccc2n1C1CCN(CCCC(c2ccc(F)cc2)c2ccc(F)cc2)CC1 [Pimozide] + Cc1nc(NC(=O)N2CCC[C@H]2C(N)=O)sc1-c1ccnc(C(C)(C)C(F)(F)F)c1 [Alpelisib] (partner 2 µM)", 0.0],
  ["Cc1cnc(-c2cnc(NCCNc3ccc(C#N)cn3)nc2-c2ccc(Cl)cc2Cl)[nH]1 + COc1cc2c(Oc3ccc(NC(=O)C4(C(=O)Nc5ccc(F)cc5)CC4)cc3F)ccnc2cc1OCCCN1CCOCC1 [Foretinib] (partner 0.25 µM)", 0.0]
]}

###

test system: NCI-H2228; assay: relative viability (nuclei count vs DMSO), 5 days (fraction); higher = more cells survive; settings: first compound 0.8 µM

{"columns": ["molecule", "relative viability"],
 "data": [
  ["Cc1cnc(-c2cnc(NCCNc3ccc(C#N)cn3)nc2-c2ccc(Cl)cc2Cl)[nH]1 + CC(=O)Nc1cccc(-n2c(=O)n(C3CC3)c(=O)c3c(Nc4ccc(I)cc4F)n(C)c(=O)c(C)c32)c1 [Trametinib] (partner 0.02 µM)", 0.506],
  ["Cc1cnc(-c2cnc(NCCNc3ccc(C#N)cn3)nc2-c2ccc(Cl)cc2Cl)[nH]1 + CC1(C)CCC(c2ccc(Cl)cc2)=C(CN2CCN(c3ccc(C(=O)NS(=O)(=O)c4ccc(N[C@H](CCN5CCOCC5)CSc5ccccc5)c(S(=O)(=O)C(F)(F)F)c4)cc3)CC2)C1 [Navitoclax] (partner 0.5 µM)", 0.796],
  ["Cc1cnc(-c2cnc(NCCNc3ccc(C#N)cn3)nc2-c2ccc(Cl)cc2Cl)[nH]1 + CC(C)C[C@H](NC(=O)[C@H](Cc1ccccc1)NC(=O)c1cnccn1)B(O)O [Bortezomib] (partner 0.002 µM)", 0.986],
  ["Cc1cnc(-c2cnc(NCCNc3ccc(C#N)cn3)nc2-c2ccc(Cl)cc2Cl)[nH]1 + O=C(CCCCCCC(=O)Nc1ccccc1)NO [Vorinostat] (partner 1 µM)", 0.668],
  ["O=c1[nH]c2ccccc2n1C1CCN(CCCC(c2ccc(F)cc2)c2ccc(F)cc2)CC1 [Pimozide] + O=C(CCCCCCC(=O)Nc1ccccc1)NO [Vorinostat] (partner 1 µM)", 0.668],
  ["Cc1cnc(-c2cnc(NCCNc3ccc(C#N)cn3)nc2-c2ccc(Cl)cc2Cl)[nH]1 + Nc1nc2[nH]cc(CCc3ccc(C(=O)N[C@@H](CCC(=O)O)C(=O)O)cc3)c2c(=O)[nH]1 [Pemetrexed] (partner 0.2 µM)", 0.386],
  ["Cc1cnc(-c2cnc(NCCNc3ccc(C#N)cn3)nc2-c2ccc(Cl)cc2Cl)[nH]1 + COc1cc2c(Oc3ccc(NC(=O)C4(C(=O)Nc5ccc(F)cc5)CC4)cc3F)ccnc2cc1OCCCN1CCOCC1 [Foretinib] (partner 0.25 µM)", 0.898],
  ["Cc1cnc(-c2cnc(NCCNc3ccc(C#N)cn3)nc2-c2ccc(Cl)cc2Cl)[nH]1 + Cc1nc(NC(=O)N2CCC[C@H]2C(N)=O)sc1-c1ccnc(C(C)(C)C(F)(F)F)c1 [Alpelisib] (partner 2 µM)", 0.987],
  ["O=c1[nH]c2ccccc2n1C1CCN(CCCC(c2ccc(F)cc2)c2ccc(F)cc2)CC1 [Pimozide] + CS(=O)(=O)N1CCN(Cc2cc3nc(-c4cccc5[nH]ncc45)nc(N4CCOCC4)c3s2)CC1 [Pictilisib] (partner 1 µM)", 0.312],
  ["O=c1[nH]c2ccccc2n1C1CCN(CCCC(c2ccc(F)cc2)c2ccc(F)cc2)CC1 [Pimozide] + O=C(c1cc(Cc2n[nH]c(=O)c3ccccc23)ccc1F)N1CCN(C(=O)C2CC2)CC1 [Olaparib] (partner 8 µM)", 0.555],
  ["Cc1cnc(-c2cnc(NCCNc3ccc(C#N)cn3)nc2-c2ccc(Cl)cc2Cl)[nH]1 + Cc1nc(Nc2ncc(C(=O)Nc3c(C)cccc3Cl)s2)cc(N2CCN(CCO)CC2)n1 [Dasatinib] (partner 0.075 µM)", 0.494]
]}
